Examples of compounds with documented viability at 4 h, 10 µg/mL follow.
# ASSAY_OVERVIEW: Cell viability (MTT) assay on RBL-2H3 cells
# Format: cell-based, rat
# EXPERIMENTAL_CONTEXT: rat, RBL-2H3 cells; RBL-2H3, 10 µg/mL
Structures can show the parent of a compound that is named as a salt.
Number only, in %; omit the unit.

COMPOUND: COC[C@H](Cc1ccc(OC)c(OC)c1)[C@H](COC)Cc1cc(OC)c2c(c1)OCO2
MEASURE: viability at 4 h, 10 µg/mL
UNIT_ABBREV: %
RECORDED_RESULT: 96.5
--
COMPOUND: COC[C@@H]1Cc2cc(OC)c3c(c2[C@H](c2ccc(OC)c(OC)c2)[C@H]1COC)OCO3
MEASURE: viability at 4 h, 10 µg/mL
UNIT_ABBREV: %
RECORDED_RESULT: 114
--
COMPOUND: O=C(O[C@@H]1O[C@@H]2COC(=O)c3cc(O)c(O)c(O)c3-c3c(cc(O)c(O)c3O)C(=O)O[C@H]([C@H]1O)[C@@H]2O)c1cc(O)c(O)c(O)c1
MEASURE: viability at 4 h, 10 µg/mL
UNIT_ABBREV: %
RECORDED_RESULT: 93.7

(Q) Looking for the measured viability at 4 h, 10 µg/mL of COC[C@@H](Cc1ccc(OC)c(OC)c1)[C@@H](COC)Cc1ccc(OC)c(OC)c1 , can you help?
(A) 84.3

(Q) Entry to check: CN1CCC(=C2c3ccccc3CC(=O)c3sccc32)CC1 [Ketotifen fumarate, reference compound]
(A) 86.8

---

# ASSAY_OVERVIEW: Cell viability (MTT) assay on RBL-2H3 cells
# Assay type: cell-based, rat
# EXPERIMENTAL_CONTEXT: rat, RBL-2H3 cells; RBL-2H3, 5 µg/mL
Where a name gives a salt, the structure may show the parent alone.
Lab note: compare viability at 4 h, 5 µg/mL with 80%, writing yes if less and no if equal or more.

COMPOUND: COC[C@@H]1Cc2cc(OC)c3c(c2[C@H](c2ccc(OC)c(OC)c2)[C@H]1COC)OCO3
LABEL_VALUE: no
--
COMPOUND: CN1CCC(=C2c3ccccc3CC(=O)c3sccc32)CC1 [Ketotifen fumarate, reference compound]
LABEL_VALUE: no

API: the following record is the query input.
(Q) Threshold test, viability at 4 h, 5 µg/mL < 80%: COC[C@@H](Cc1ccc(OC)c(OC)c1)[C@@H](COC)Cc1ccc(OC)c(OC)c1
(A) yes

---

Entries annotated with measured viability at 4 h, 100 µg/mL
# ASSAY_OVERVIEW: Cell viability (MTT) assay on RBL-2H3 cells
# Type: cell-based, rat
# EXPERIMENTAL_CONTEXT: rat, RBL-2H3 cells; RBL-2H3, 100 µg/mL
Structures can show the parent of a compound that is named as a salt.
Number in %, nothing else.

Consider the reported viability at 4 h, 100 µg/mL for these compounds:
COMPOUND: CN1CCC(=C2c3ccccc3CC(=O)c3sccc32)CC1 [Ketotifen fumarate, reference compound]
viability at 4 h, 100 µg/mL, %: 28.9
--
COMPOUND: O=C(O[C@@H]1O[C@@H]2COC(=O)c3cc(O)c(O)c(O)c3-c3c(cc(O)c(O)c3O)C(=O)O[C@H]([C@H]1O)[C@@H]2O)c1cc(O)c(O)c(O)c1 [Corilagin (4), corilagin]
viability at 4 h, 100 µg/mL, %: 101
--
COMPOUND: COC[C@@H](Cc1ccc(OC)c(OC)c1)[C@@H](COC)Cc1ccc(OC)c(OC)c1 [Phyllanthin (1), phyllanthin]
viability at 4 h, 100 µg/mL, %: 53.5

(Q) Given the compound COC[C@@H]1Cc2cc(OC)c3c(c2[C@H](c2ccc(OC)c(OC)c2)[C@H]1COC)OCO3 [Hypophyllanthin (2), hypophyllanthin] , what is its reported viability at 4 h, 100 µg/mL?
(A) 28.1

(Q) Do the same for COC[C@H](Cc1ccc(OC)c(OC)c1)[C@H](COC)Cc1cc(OC)c2c(c1)OCO2 [Niranthin (3), niranthin] please
(A) 86.3

---

# ASSAY_OVERVIEW: Cell viability (MTT) assay on RBL-2H3 cells
# Assay type: cell-based, rat
# EXPERIMENTAL_CONTEXT: rat, RBL-2H3 cells; RBL-2H3, 2.5 µg/mL
Counter-ions that a name gives are not always drawn.
# viability at 4 h, 2.5 µg/mL per entry
# unit: % | format: bare number

Observe how each entry below is paired with its result.
COMPOUND: COC[C@H](Cc1ccc(OC)c(OC)c1)[C@H](COC)Cc1cc(OC)c2c(c1)OCO2
UNIT_ABBREV: %
viability at 4 h, 2.5 µg/mL: 104
--
COMPOUND: O=C(O[C@@H]1O[C@@H]2COC(=O)c3cc(O)c(O)c(O)c3-c3c(cc(O)c(O)c3O)C(=O)O[C@H]([C@H]1O)[C@@H]2O)c1cc(O)c(O)c(O)c1
UNIT_ABBREV: %
viability at 4 h, 2.5 µg/mL: 87.1
--
COMPOUND: CN1CCC(=C2c3ccccc3CC(=O)c3sccc32)CC1 [Ketotifen fumarate, reference compound]
UNIT_ABBREV: %
viability at 4 h, 2.5 µg/mL: 91.9
--
COMPOUND: COC[C@@H]1Cc2cc(OC)c3c(c2[C@H](c2ccc(OC)c(OC)c2)[C@H]1COC)OCO3
UNIT_ABBREV: %
viability at 4 h, 2.5 µg/mL: 93

Turning now to a further record.
(Q) Data request, read-out viability at 4 h, 2.5 µg/mL, for COC[C@@H](Cc1ccc(OC)c(OC)c1)[C@@H](COC)Cc1ccc(OC)c(OC)c1
(A) 92

---

# ASSAY_OVERVIEW: Cell viability (MTT) assay on RBL-2H3 cells
# Format: cell-based, rat
# EXPERIMENTAL_CONTEXT: rat, RBL-2H3 cells; RBL-2H3, 50 µg/mL
Counter-ions that a name gives are not always drawn.
Listed here are molecules together with their documented viability at 4 h, 50 µg/mL.
Quick reminder: number only, in %, skip the unit.

MOLECULE: CN1CCC(=C2c3ccccc3CC(=O)c3sccc32)CC1 [Ketotifen fumarate, reference compound]
viability at 4 h, 50 µg/mL [%]: 83.8
//
MOLECULE: COC[C@@H](Cc1ccc(OC)c(OC)c1)[C@@H](COC)Cc1ccc(OC)c(OC)c1 [Phyllanthin (1), phyllanthin]
viability at 4 h, 50 µg/mL [%]: 74.2
//
MOLECULE: COC[C@H](Cc1ccc(OC)c(OC)c1)[C@H](COC)Cc1cc(OC)c2c(c1)OCO2 [Niranthin (3), niranthin]
viability at 4 h, 50 µg/mL [%]: 96.6

(Q) // query viability at 4 h, 50 µg/mL value for entry COC[C@@H]1Cc2cc(OC)c3c(c2[C@H](c2ccc(OC)c(OC)c2)[C@H]1COC)OCO3 [Hypophyllanthin (2), hypophyllanthin]
(A) 40.6

(Q) Please do the same for O=C(O[C@@H]1O[C@@H]2COC(=O)c3cc(O)c(O)c(O)c3-c3c(cc(O)c(O)c3O)C(=O)O[C@H]([C@H]1O)[C@@H]2O)c1cc(O)c(O)c(O)c1 [Corilagin (4), corilagin] as well.
(A) 104

---

# ASSAY_OVERVIEW: Cell viability (MTT) assay on RBL-2H3 cells
# Type: cell-based, rat
# EXPERIMENTAL_CONTEXT: rat, RBL-2H3 cells; RBL-2H3, 25 µg/mL
# Procedure: RBL-2H3 cells were obtained from the Japanese Collection of Research Bioresources (JCRB) cell bank with a cell number of JCRB0023. The cells were cultured in enriched media (MEM containing 10% FBS and 1% penicillin-streptomycin (10 000 U/mL)). […] The cell viability assay was conducted as reported by Shahari, et al.. […] After 10 min of shaking the well plates on a shaker, the absorbance was immediately measured using a microplate reader at 570 nm.
Counter-ions that a name gives are not always drawn.
MEASURE: viability at 4 h, 25 µg/mL (%)
Supply the numeric figure in %, leaving out any unit text.

COMPOUND: COC[C@@H](Cc1ccc(OC)c(OC)c1)[C@@H](COC)Cc1ccc(OC)c(OC)c1 [Phyllanthin (1), phyllanthin]
RECORDED_RESULT: 82.1

(Q) # get_value(readout='viability at 4 h, 25 µg/mL', item= O=C(O[C@@H]1O[C@@H]2COC(=O)c3cc(O)c(O)c(O)c3-c3c(cc(O)c(O)c3O)C(=O)O[C@H]([C@H]1O)[C@@H]2O)c1cc(O)c(O)c(O)c1 [Corilagin (4), corilagin] )
(A) 103

(Q) Please do the same for COC[C@H](Cc1ccc(OC)c(OC)c1)[C@H](COC)Cc1cc(OC)c2c(c1)OCO2 [Niranthin (3), niranthin] as well.
(A) 85.4

(Q) Continue with COC[C@@H]1Cc2cc(OC)c3c(c2[C@H](c2ccc(OC)c(OC)c2)[C@H]1COC)OCO3 [Hypophyllanthin (2), hypophyllanthin]
(A) 62.5

(Q) And for CN1CCC(=C2c3ccccc3CC(=O)c3sccc32)CC1 [Ketotifen fumarate, reference compound] ?
(A) 87.4
